# MEASUREMENT_TARGET: HCV NS5B RdRp genotype 1b (Hepatitis C virus genotype 1b, UniProt Q9WMX2)
# Construct: The protein was expressed with an 18 amino acid C-terminal truncation to enhance the solubility; made in house; host or cells: E. coli BL21(DE3), pET21a vector
# Sequence (Q9WMX2 2420-2992): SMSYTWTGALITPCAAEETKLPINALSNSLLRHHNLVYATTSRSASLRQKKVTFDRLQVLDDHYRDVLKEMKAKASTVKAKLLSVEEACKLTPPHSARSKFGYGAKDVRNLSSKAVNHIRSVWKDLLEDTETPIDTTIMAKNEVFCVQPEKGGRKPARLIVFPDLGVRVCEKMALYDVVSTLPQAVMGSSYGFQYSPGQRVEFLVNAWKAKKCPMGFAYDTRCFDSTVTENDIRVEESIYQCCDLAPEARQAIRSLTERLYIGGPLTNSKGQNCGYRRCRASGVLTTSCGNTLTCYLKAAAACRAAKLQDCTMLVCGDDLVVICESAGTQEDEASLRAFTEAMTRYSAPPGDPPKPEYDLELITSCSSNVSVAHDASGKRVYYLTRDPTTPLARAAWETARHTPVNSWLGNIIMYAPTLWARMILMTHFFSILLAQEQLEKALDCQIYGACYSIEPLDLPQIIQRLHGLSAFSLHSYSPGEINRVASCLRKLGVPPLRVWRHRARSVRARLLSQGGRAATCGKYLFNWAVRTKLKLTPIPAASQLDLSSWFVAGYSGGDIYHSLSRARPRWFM
# TEST_PROTOCOL: Standard HCV NS5B RdRp enzyme assay
# Assay type: biochemical
# TEST_CONTEXT: Table 1b; HCV NS5B RdRp genotype 1b; read-out: IC50
# Procedure: HCV NS5B RdRp cloning, expression, and purification. The cDNA encoding the NS5B protein of HCV, genotype 1b, was cloned into the pET21a expression vector. The protein was expressed with an 18 amino acid C-terminal truncation to enhance the solubility. […] Standard HCV NS5B RdRp enzyme assay. […] Plates were read on a Packard Top Count NXT after >1 hr incubation at room temperature. IC50 values for compounds were determined using seven different [I]. […]
Measured IC50, listed per entry.

Examples from the recorded data:
# COMPOUND, IC50
rows = [
    ("CNC(=O)c1c(-c2ccc(F)cc2)oc2ccc(-c3cc(C(=O)NC4(c5nnc(C(C)C)[nH]5)CC4)ccc3C)cc12", "< 250 nM"),
    ("CNC(=O)c1c(-c2ccc(F)cc2)oc2ccc(-c3cc(C(=O)NCC(C)C)ccc3OCC3CCNC3)cc12 (stereo not shown)", "< 250 nM"),
    ("CNC(=O)c1c(-c2ccc(F)cc2)oc2ccc(-c3cc(N)ccc3C)cc12", "1000 to 10000 nM"),
    ("CNC(=O)c1c(-c2ccc(F)cc2)oc2ccc(-c3cc(C(=O)NCC(C)C)ccc3OCCNC(N)=O)cc12", "< 250 nM"),
    ("CNC(=O)c1c(-c2ccc(F)cc2)oc2ccc(-c3ccc(-c4ccccc4C(N)=O)c(C(=O)NCC(C)C)c3)cc12", "< 250 nM"),
    ("CNC(=O)c1c(-c2ccc(F)cc2)oc2ccc(-c3cccc(-c4ccn[nH]4)c3)cc12", "1000 to 10000 nM"),
    ("CNC(=O)c1c(-c2ccc(F)cc2)oc2ccc(-c3cc(OCC4CCC4)cc(C(=O)NCC(C)C)c3)cc12", "> 10000 nM"),
    ("CNC(=O)c1c(-c2ccc(F)cc2)oc2ccc(-c3cc(C(=O)NC4(c5ccccn5)CC4)ccc3OCC(N)=O)cc12", "< 250 nM"),
]

# input for lookup
Which IC50 reading was recorded for the compound CNC(=O)c1c(-c2ccc(F)cc2)oc2ccc(-c3cccc(C(=O)NC(C)(C)C(=O)Nc4nccnn4)c3)cc12 ?
< 250 nM

====

Measured pEC50, listed per entry.
# Test system: HCV replicon cells
# TEST_PROTOCOL: HCV replicon FRET / luciferase assay (96-well plates)
# Type: cell-based
# TEST_CONTEXT: Hepatitis C virus, Table 1a; HCV replicon; read-out: EC50
pEC50: −log10 of the molar value.

Examples from the recorded data:
# COMPOUND, pEC50
data = [
    ("CNC(=O)c1c(-c2ccc(F)cc2)oc2ccc(-c3ccc(C(=O)NCCc4ccc(F)cc4)cc3)cc12", "5.00 to 6.00"),
    ("CNC(=O)c1c(-c2ccc(F)cc2)oc2ccc(-c3cccc(C(=O)Nc4cc(C)ccn4)c3)cc12", "> 6.60"),
    ("CNC(=O)c1c(-c2ccc(F)cc2)oc2ccc(-c3cccc(C(=O)NCc4ccccc4F)c3)cc12", "5.00 to 6.00"),
    ("CNC(=O)c1c(-c2ccc(F)cc2)oc2ccc(-c3cccc(C(=O)NCC4CC4)c3)cc12", "> 6.60"),
    ("CNC(=O)c1c(-c2ccc(F)cc2)oc2ccc(-c3cccc(C(=O)NCC(C)C)c3)cc12", "> 6.60"),
    ("CCOC(=O)C(NC(=O)c1cccc(-c2ccc3oc(-c4ccc(F)cc4)c(C(=O)NC)c3c2)c1)C(C)C (centres unmarked)", "5.00 to 6.00"),
    ("CNC(=O)c1c(-c2ccc(F)cc2)oc2ccc(-c3cccc(C(=O)Nc4cccc(OC)c4)c3)cc12", "5.00 to 6.00"),
    ("CNC(=O)c1c(-c2ccc(F)cc2)oc2ccc(-c3cc(C(=O)NCC(C)C)ccc3O)cc12", "> 6.60"),
]

Which pEC50 reading was recorded for the compound CNC(=O)c1c(-c2ccc(F)cc2)oc2ccc(-c3cccc(C(=O)N4CCC[C@H]4CO)c3)cc12 ?
5.00 to 6.00

Input CNC(=O)c1c(-c2ccc(F)cc2)oc2ccc(-c3cccc(S(=O)(=O)NCc4ccccc4)c3)cc12
< 5.00

Input CC(C)Oc1cc2c(-c3ncn[nH]3)c(-c3ccc(F)cc3)oc2cc1N(C)S(C)(=O)=O
5.00 to 6.00
